# System: estrogen synthesis
# TEST METHOD NOTES: Estrogen synthesis inhibition in rats (uterine weight and ovarian steroid concentrations)
# Assay type: in vivo, female Wistar rats
# MEASUREMENT SETUP: 300 ppm in feed (approximately 30 mg/kg/day), ovaries
Counter-ions that a name gives are not always drawn.
Listing of recorded Mean Steroid Concentration, estrone by entry.

{"COMPOUND": "Clc1ccc(C(c2ccc(Cl)cc2)(c2cccnc2)n2ccnc2)cc1", "TESTED SYSTEM": "estrogen synthesis", "ENDPOINT VALUE": "0.24 femtomoles per milligram of protein"}
{"COMPOUND": "O=[N+]([O-])c1ccc(Cn2ccnc2)cc1 [hydrochloride]", "TESTED SYSTEM": "estrogen synthesis", "ENDPOINT VALUE": "1.19 femtomoles per milligram of protein"}
{"COMPOUND": "CCOc1ccccc1C(C1CCCCC1)n1ccnc1 (stereo not drawn) [hydrochloride]", "TESTED SYSTEM": "estrogen synthesis", "ENDPOINT VALUE": "0.20 femtomoles per milligram of protein"}
{"COMPOUND": "Clc1ccc(C(c2ccccc2)n2ccnc2)cc1 (stereo not drawn)", "TESTED SYSTEM": "estrogen synthesis", "ENDPOINT VALUE": "0.11 femtomoles per milligram of protein"}
{"COMPOUND": "C#CC(c1ccccc1)(c1ccccc1)n1ccnc1", "TESTED SYSTEM": "estrogen synthesis", "ENDPOINT VALUE": "0.00 femtomoles per milligram of protein"}
{"COMPOUND": "c1ccc(C(c2ccccc2)(c2ccccc2)n2ccnc2)cc1", "TESTED SYSTEM": "estrogen synthesis", "ENDPOINT VALUE": "0.21 femtomoles per milligram of protein"}
{"COMPOUND": "Clc1ccc(C(c2ccc(Cl)cc2)(c2cccnc2)n2cncn2)cc1", "TESTED SYSTEM": "estrogen synthesis", "ENDPOINT VALUE": "0.06 femtomoles per milligram of protein"}
{"COMPOUND": "Cl.Clc1cccc(Cn2ccnc2)c1Cl", "TESTED SYSTEM": "estrogen synthesis", "ENDPOINT VALUE": "0.23 femtomoles per milligram of protein"}

// lookup Mean Steroid Concentration, estrone | system=estrogen synthesis | key= "Clc1ccc(COc2ccccc2Cn2ccnc2)c(Cl)c1"
0.30 femtomoles per milligram of protein

Further, for O=[N+]([O-])c1ccc(C(c2ccc([N+](=O)[O-])cc2)n2ccnc2)cc1 [1-[bis(4-nitrophenyl)methyl]imidazole] ?
0.94 femtomoles per milligram of protein

Also check "Clc1ccc(C(c2ccc(Cl)cc2)n2cnnc2)cc1"
0.10 femtomoles per milligram of protein

Now consider "c1ccc(C(c2ccccc2)(c2ccncc2)n2ccnc2)cc1" and answer again.
0.23 femtomoles per milligram of protein

---

# TESTED SYSTEM: aromatase (Rattus norvegicus, UniProt P22443)
# Construct: ovarian microsomes are obtained from rats treated with pregnant mares serum gonadotropin
# Sequence (P22443 whole entry): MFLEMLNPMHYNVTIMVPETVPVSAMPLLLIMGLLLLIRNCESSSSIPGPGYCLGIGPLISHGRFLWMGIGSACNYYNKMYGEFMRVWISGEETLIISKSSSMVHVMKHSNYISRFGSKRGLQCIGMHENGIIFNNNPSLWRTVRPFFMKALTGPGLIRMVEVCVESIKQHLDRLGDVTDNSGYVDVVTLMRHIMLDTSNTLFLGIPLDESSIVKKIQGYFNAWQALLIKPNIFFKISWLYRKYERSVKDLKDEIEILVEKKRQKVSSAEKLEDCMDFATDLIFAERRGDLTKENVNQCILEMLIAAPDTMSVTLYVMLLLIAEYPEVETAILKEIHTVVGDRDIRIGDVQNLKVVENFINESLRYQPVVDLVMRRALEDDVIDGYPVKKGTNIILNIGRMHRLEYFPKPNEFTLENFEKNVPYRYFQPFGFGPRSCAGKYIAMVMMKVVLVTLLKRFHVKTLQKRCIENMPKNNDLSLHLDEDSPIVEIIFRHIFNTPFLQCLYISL
# TEST METHOD NOTES: Aromatase inhibition in the rat ovarian microsome assay
# MEASUREMENT SETUP: EC50: concentration required to achieve 50% inhibition of aromatase activity, substrate (androstenedione) concentration 0.1 μM
pEC50: −log10 of the molar value.
# cutoff 7 applies to pEC50; >= gives 1, < gives -1

{"GIVEN SMILES": "Clc1ccc(Cl)c(C(c2cccnc2)(c2cc(Cl)ccc2Cl)n2ccnc2)c1", "CLASS NAME": -1}
{"GIVEN SMILES": "Fc1ccc(C(c2ccccc2)(c2ccc(F)cc2)n2ccnc2)cc1", "CLASS NAME": 1}
{"GIVEN SMILES": "c1ccc(C(c2ccccc2)(c2ccccc2)n2cncn2)cc1", "CLASS NAME": -1}
{"GIVEN SMILES": "Clc1ccc(C(c2ccc(Cl)cc2)(c2cccnc2)n2cncn2)cc1", "CLASS NAME": 1}
{"GIVEN SMILES": "Fc1ccc(Cn2ccnc2)cc1", "CLASS NAME": -1}

For this molecule, is measured pEC50 7 or higher? "C#CC(c1ccccc1)(c1ccccc1)n1ccnc1"
1
